# maps each entry to its cytotoxicity at 2 h, up to 25 µM
Experiment: Cytotoxicity against human S1 cells assessed as inhibition of cell viability at 5 to 25 uM incubated for 2 hrs by MTT assay relative to control
Type: cell-based
Conditions: read-out: INH
Metric: cytotoxicity at 2 h, up to 25 µM

Structure: COc1ccc(C(=O)c2ccc3[nH]cc(C(=O)c4ccc(OC)cc4)c3c2OC)cc1
Metric: cytotoxicity at 2 h, up to 25 µM
Observed value: < 20%
//
Structure: COc1ccc(C(=O)c2c[nH]c3ccc(OC)cc23)cc1
Metric: cytotoxicity at 2 h, up to 25 µM
Observed value: < 20%

* * *

Target: Broad substrate specificity ATP-binding cassette transporter ABCG2 (Homo sapiens)
Sequence (Q9UNQ0 whole entry): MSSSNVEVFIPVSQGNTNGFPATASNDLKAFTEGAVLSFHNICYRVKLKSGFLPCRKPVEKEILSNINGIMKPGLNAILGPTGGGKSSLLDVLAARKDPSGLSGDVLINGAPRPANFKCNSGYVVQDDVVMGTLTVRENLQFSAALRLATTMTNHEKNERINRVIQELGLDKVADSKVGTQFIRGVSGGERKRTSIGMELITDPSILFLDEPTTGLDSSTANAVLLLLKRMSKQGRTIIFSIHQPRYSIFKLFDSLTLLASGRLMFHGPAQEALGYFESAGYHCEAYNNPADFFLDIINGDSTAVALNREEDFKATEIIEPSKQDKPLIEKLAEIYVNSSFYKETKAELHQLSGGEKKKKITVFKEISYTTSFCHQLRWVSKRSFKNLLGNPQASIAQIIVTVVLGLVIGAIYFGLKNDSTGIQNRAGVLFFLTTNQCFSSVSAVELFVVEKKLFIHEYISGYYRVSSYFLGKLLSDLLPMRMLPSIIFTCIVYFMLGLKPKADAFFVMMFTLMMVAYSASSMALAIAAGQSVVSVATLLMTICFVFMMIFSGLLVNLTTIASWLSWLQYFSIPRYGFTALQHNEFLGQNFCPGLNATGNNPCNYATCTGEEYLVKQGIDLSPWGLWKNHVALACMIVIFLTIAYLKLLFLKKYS
Experiment: Reversal of ABCG2-mediated multidrug resistance in human NCI-H460/MX20 cells assessed as potentiation of mitoxantrone-induced cytotoxicity by measuring inhibition of cell proliferation at 25 uM pretreated for 2 hrs followed by mitoxantrone addition and measured after 44 hrs by MTT assay (reference value: 24 +/- 3%)
Assay type: cell-based
Settings: 25 µM

Structure: COc1ccc(C(=O)c2c[nH]c3cccc(OC)c23)c(OC)c1
inhibition (INH): Active

Structure: COc1ccc(C(=O)c2c[nH]c3ccc(OC)cc23)c(OC)c1
inhibition (INH): Active

Structure: O=C(c1ccc(O)cc1)c1c[nH]c2ccc(O)cc12
inhibition (INH): Active

Structure: O=C(c1ccc(O)cc1O)c1c[nH]c2ccc(O)cc12
inhibition (INH): Active

meta.source: ChEMBL document CHEMBL4351028
